# Measured On: human ALDH2 wild type (Homo sapiens, UniProt P05091)
# Construct: His-tag (pTrcHis vector) (N); made in house; host or cells: E. coli BL21
# Sequence (P05091 18-517): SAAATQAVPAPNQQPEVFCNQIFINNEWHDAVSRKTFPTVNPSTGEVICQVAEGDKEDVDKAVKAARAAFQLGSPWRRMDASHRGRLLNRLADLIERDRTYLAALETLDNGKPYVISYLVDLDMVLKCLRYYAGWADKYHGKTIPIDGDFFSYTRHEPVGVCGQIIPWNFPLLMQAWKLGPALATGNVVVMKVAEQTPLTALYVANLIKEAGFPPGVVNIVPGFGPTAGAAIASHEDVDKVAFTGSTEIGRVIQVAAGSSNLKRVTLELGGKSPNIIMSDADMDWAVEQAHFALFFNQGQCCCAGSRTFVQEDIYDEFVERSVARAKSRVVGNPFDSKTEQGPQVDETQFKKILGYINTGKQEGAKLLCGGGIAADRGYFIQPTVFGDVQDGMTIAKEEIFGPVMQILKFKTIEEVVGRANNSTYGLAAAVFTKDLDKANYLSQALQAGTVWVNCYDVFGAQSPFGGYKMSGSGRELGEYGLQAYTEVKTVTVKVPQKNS
# Assay Summary: ALDH2 enzymatic assay (NADH at 340 nm), recombinant wild type enzyme
# Format: biochemical
# Set-up: key: −: no activation or inhibition; +: activation less than control 1; ++: activation similar to control 1, within 10%; +++: activation more than control 1 and less than control (compound 161); ++++: activation similar to compound 161, within 10%
# Conditions: activation relative to benchmarks control 1 and compound 161
Metric: ALDH2 (wild-type)

# Compound, ALDH2 (wild-type)
records = [
    ("Cc1nc2ccc(CNC(=O)c3c(Cl)ccnc3OCC3CC3)cc2[nH]1", "+"),
    ("C=CCOc1cccc(Cl)c1C(=O)NCc1ccc(OC)c(F)c1", "++"),
    ("COc1ccc(CNC(=O)c2c(Cl)ccnc2OCC(C)C)cc1F", "++"),
    ("O=C(NCc1ccc2ncoc2c1)c1c(Cl)ccnc1OCC1CC1", "+"),
    ("COc1ccc(CNC(=O)c2c(C)ccnc2OCC2CCC2)cc1F", "+"),
]

For the compound CCS(=O)(=O)c1nccc(Cl)c1C(=O)NCc1ccc(OC)c(F)c1 , the measured ALDH2 (wild-type) on human ALDH2 wild type (Homo sapiens, UniProt P05091) was +

For the compound CS(=O)(=O)c1ccc(CNc2cccc(Cl)c2C(=O)NCc2ccc3c(c2)OCO3)cc1 , the measured ALDH2 (wild-type) on human ALDH2 wild type (Homo sapiens, UniProt P05091) was +

For the compound CCC(C)Sc1nccc(Cl)c1C(=O)NCc1ccc(OC)c(F)c1 (stereo not drawn) , the measured ALDH2 (wild-type) on human ALDH2 wild type (Homo sapiens, UniProt P05091) was +

For the compound O=C(O)c1ccc(CNC(=O)c2c(Cl)cccc2Br)cc1 , the measured ALDH2 (wild-type) on human ALDH2 wild type (Homo sapiens, UniProt P05091) was +

----------
fraction unbound values for the compounds below.
# Assay Summary: Plasma protein binding (PPB), human
# Format: in vitro ADME
Reply with the value as a number alone.

# Compound, Numeric Value
measured = [
    ("COc1ccc(CNC(=O)c2c(Cl)cc[n+]([O-])c2OCC2CC2)cc1F [Compound 169]", 0.098),
]

Item: COc1ccc(CNC(=O)c2c(Cl)ccnc2OCC2CC2)cc1F [Compound 161] | fraction unbound: 0.007

Item: O=C(NCc1ccc2c(c1)OCO2)c1c(Cl)cccc1Cl [Control 1, reference compound] | fraction unbound: 0.025

----------
# Measured On: human ALDH2 wild type (Homo sapiens, UniProt P05091)
# Construct: His-tag (pTrcHis vector) (N); made in house; host or cells: E. coli BL21
# Assay Summary: ALDH2 enzymatic assay (NADH at 340 nm), recombinant wild type enzyme
# Type: biochemical
# Parameters: key: −: no activation or inhibition; +: activation less than control 1; ++: activation similar to control 1, within 10%; +++: activation more than control 1 and less than control (compound 161); ++++: activation similar to compound 161, within 10%
# Conditions: activation relative to benchmarks control 1 and compound 161
Metric: ALDH2 (wild-type)

Below are worked cases with known answers.
# Compound, Metric, Result
measured = [
    ("COc1ccc(CNC(=O)c2c(Cl)ccnc2OCC2CC2)cn1 [Compound 255]", "ALDH2 (wild-type)", "+"),
    ("COc1ccc(CNC(=O)c2c(OCC3CC3)ccnc2OCC2CC2)cc1F [Compound 162]", "ALDH2 (wild-type)", "+"),
    ("O=C(NCc1ccc(F)c(F)c1)c1c(Cl)cccc1OCC1CC1 [Compound 155]", "ALDH2 (wild-type)", "+"),
    ("COc1cc(F)c(CNC(=O)c2c(Cl)ccnc2OCC(C)C)cc1F [Compound 269]", "ALDH2 (wild-type)", "++++"),
]

Item: COc1ccc(CNC(=O)c2cc(Br)ccc2C)cc1F [Compound 123] | ALDH2 (wild-type): +

Item: COc1ccc(CNC(=O)c2c(Cl)ccnc2CCC(C)C)cc1F [Compound 250] | ALDH2 (wild-type): +

Item: O=C(NCc1ccc(OC(F)(F)F)c(F)c1)c1c(Cl)ccnc1NCC1CC1 [Compound 191] | ALDH2 (wild-type): +

Item: COc1ccc(CNC(=O)c2c(C)ccnc2OCC2CC2)cc1F [Compound 231] | ALDH2 (wild-type): +

Item: COc1ccc(CNC(=O)c2c(Cl)ccnc2OCC2CC2)cc1F [Compound 161] | ALDH2 (wild-type): ++++

----------
# Measured On: CYP2C19 (Homo sapiens, UniProt P33261)
# Sequence (P33261 whole entry): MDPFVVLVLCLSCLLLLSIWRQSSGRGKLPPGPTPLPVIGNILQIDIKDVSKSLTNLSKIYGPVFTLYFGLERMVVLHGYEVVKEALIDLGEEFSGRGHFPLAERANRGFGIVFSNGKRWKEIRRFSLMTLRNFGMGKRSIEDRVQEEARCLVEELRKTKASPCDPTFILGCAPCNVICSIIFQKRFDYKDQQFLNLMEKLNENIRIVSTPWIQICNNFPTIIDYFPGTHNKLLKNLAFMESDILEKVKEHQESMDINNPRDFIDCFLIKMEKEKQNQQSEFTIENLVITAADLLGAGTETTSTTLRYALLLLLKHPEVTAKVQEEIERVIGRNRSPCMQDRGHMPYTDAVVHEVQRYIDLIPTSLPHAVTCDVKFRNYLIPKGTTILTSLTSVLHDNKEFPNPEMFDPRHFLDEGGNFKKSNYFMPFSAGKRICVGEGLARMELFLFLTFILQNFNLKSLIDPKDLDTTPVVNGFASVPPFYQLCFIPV
# Assay Summary: Cyp inhibition 2C19
# Type: in vitro ADME
# Set-up: dose or concentration left out as unconfirmed
Metric: inhibition
Be sure to follow the number with its unit.

Item: COc1ccc(CNC(=O)c2c(Cl)ccnc2OCC2CC2)cc1F | inhibition: 16%

----------
# Measured On: human ALDH2 wild type (Homo sapiens, UniProt P05091)
# Construct: His-tag (pTrcHis vector) (N); made in house; host or cells: E. coli BL21
# Sequence (P05091 18-517): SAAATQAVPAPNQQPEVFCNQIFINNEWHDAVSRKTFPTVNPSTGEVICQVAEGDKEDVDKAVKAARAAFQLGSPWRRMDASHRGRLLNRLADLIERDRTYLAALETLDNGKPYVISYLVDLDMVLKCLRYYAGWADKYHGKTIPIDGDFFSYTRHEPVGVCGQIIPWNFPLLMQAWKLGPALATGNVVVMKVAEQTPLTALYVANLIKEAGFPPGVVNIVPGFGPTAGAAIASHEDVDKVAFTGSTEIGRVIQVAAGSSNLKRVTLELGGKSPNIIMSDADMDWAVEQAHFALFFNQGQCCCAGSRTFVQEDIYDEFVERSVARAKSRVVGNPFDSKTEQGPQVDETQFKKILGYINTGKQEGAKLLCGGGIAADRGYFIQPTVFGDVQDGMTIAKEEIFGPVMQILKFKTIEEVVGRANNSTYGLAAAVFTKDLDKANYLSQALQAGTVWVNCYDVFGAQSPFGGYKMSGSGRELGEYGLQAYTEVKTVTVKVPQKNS
# Assay Summary: ALDH2 enzymatic assay (NADH at 340 nm), recombinant wild type enzyme
# Format: biochemical
# Set-up: key: −: no activation or inhibition; +: activation less than control 1; ++: activation similar to control 1, within 10%; +++: activation more than control 1 and less than control (compound 161); ++++: activation similar to compound 161, within 10%
# Conditions: activation relative to benchmarks control 1 and compound 161
Metric: ALDH2 (wild-type)

Below are worked cases with known answers.
# Molecule, Result
records = [
    ("COc1ccc(CNC(=O)c2c(C(F)(F)F)ccnc2OCC2CCC2)cc1F", "+"),
    ("O=C(NCc1ccc(OC(F)(F)F)c(F)c1)c1c(Cl)ccnc1OCC1CC1", "+"),
    ("COc1ccc(CNC(=O)c2c(Cl)cccc2Cl)cc1Cl", "+"),
    ("O=C(NCc1ccc(O)c(F)c1)c1c(Cl)ccnc1OCC1CC1", "−"),
]

Item: COc1ccc(CNC(=O)c2c(Cl)ccnc2NCC(C)O)cc1F (centres unmarked) | ALDH2 (wild-type): +

Item: COc1ccc(CNC(=O)c2c(C)ccnc2OC(C)C)cc1F | ALDH2 (wild-type): +

Item: COc1ccc(CNC(=O)c2c(Cl)cccc2OCCC(C)C)cc1F | ALDH2 (wild-type): +

Item: COc1ccc(CNC(=O)c2c(C)ccnc2OCC2CCNC2)cc1F (centres unmarked) | ALDH2 (wild-type): +

Item: O=C(NCc1ccc(=O)[nH]c1)c1c(Cl)ccnc1OCC1CC1 | ALDH2 (wild-type): +

Item: CCCOc1nccc(Cl)c1C(=O)NCc1ccc(OC)c(F)c1 | ALDH2 (wild-type): +

Item: COc1ccc(CNC(=O)c2c(Cl)cccc2Oc2ccc(Cl)cc2)cc1F | ALDH2 (wild-type): ++

Item: COc1ccc(CNC(=O)c2c(Cl)ccnc2Cl)c(F)c1F | ALDH2 (wild-type): +

Item: COc1ccc(CNC(=O)c2c(Cl)cccc2Cl)cc1O | ALDH2 (wild-type): +

Item: O=C(NCc1ccc([N+](=O)[O-])cc1)c1c(Cl)cccc1Br | ALDH2 (wild-type): +

Item: COc1ccc(CNC(=O)c2c(Cl)ccnc2OC2CCCC2)cc1F | ALDH2 (wild-type): ++

Item: COc1cc(F)c(CNC(=O)c2c(Cl)ccnc2OCC2CC2)cc1F | ALDH2 (wild-type): ++++

Item: COc1ccc(CNC(=O)c2c(C(F)(F)F)ccnc2OCC2CCCC2)cc1F | ALDH2 (wild-type): +
